These data points were gathered from PubChem BioAssay AID2060486.

Test system: IGROV1 complex spheroids (HUVEC, MSC), viability % test/control
Assay: Anticancer human tumor IGROV1 cell line growth inhibition [GQUAD];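 also: spheroids exposed to compounds for 7 days before readout; 100% = DMSO vehicle control viability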
Conditions: second compound 10 µM; first compound 0.316 µM; stronger effect = lower value

MOLECULE	viability, T/C [%]
CC(=O)O[C@H]1C(=O)[C@@]2(C)[C@H]([C@H](OC(=O)c3ccccc3)[C@]3(O)C[C@H](OC(=O)[C@H](O)[C@@H](NC(=O)c4ccccc4)c4ccccc4)C(C)=C1C3(C)C)[C@]1(OC(C)=O)CO[C@@H]1C[C@@H]2O + Cc1cnc(CNC(=O)c2c(=O)c3ccc(N4CCCN(C)CC4)nc3n3c2sc2ccccc23)cn1	6.12
C=CCn1c(=O)c2cnc(Nc3ccc(N4CCN(C)CC4)cc3)nc2n1-c1cccc(C(C)(C)O)n1 + CN(C)c1ccc(Nc2c3ccc(NC(=O)CCN4CCCC4)cc3nc3cc(NC(=O)CCN4CCCC4)ccc23)cc1	5.31
Cn1ncnc1[C@H]1c2n[nH]c(=O)c3cc(F)cc(c23)N[C@@H]1c1ccc(F)cc1 + Cc1[nH]c2ccc(F)cc2c1-c1nc2c3cccnc3c3ncccc3c2[nH]1	4.33
CC1COCCN1c1cc(C2(S(C)(=N)=O)CC2)nc(-c2ccnc3[nH]ccc23)n1 (stereo not given) + Cc1cnc(CNC(=O)c2c(=O)c3ccc(N4CCCN(C)CC4)nc3n3c2sc2ccccc23)cn1	9.32
CC(C)n1c(=O)n(C)c2cnc3cc(F)c(-c4ccc(OCCCN5CCCCC5)nc4)cc3c21 + Cc1cnc(CNC(=O)c2c(=O)c3ccc(N4CCCN(C)CC4)nc3n3c2sc2ccccc23)cn1	9.45
